assay-target: human PDE1B enzyme (Homo sapiens (Human))
method-summary: IMAP TR-FRET PDE1B enzymatic assay
Format: biochemical
measurement-context: negative log of half-maximal molar inhibitory concentration; 200 nM FAM-cAMP; values given as bins; read-out: PDE1b (pIC50) (converted)
measure-name: IC50

Reference set, count: 5
{"columns": ["compound", "IC50"],
 "data": [
  ["COc1ccc(CN(CCCO)C(=O)c2c(C)oc3ncnc(NC4(C)CC4)c23)cc1", "10 to 100 nM"],
  ["Cc1cnc(C2CCN(C(=O)c3c(C)oc4ncnc(NC5(C)CC5)c34)CC2)cn1", "10 to 100 nM"],
  ["Cc1oc2ncnc(NC3(C)CC3)c2c1C(=O)Nc1nccs1", "10 to 100 nM"],
  ["Cc1oc2ncnc(NC3(C)CC3)c2c1C(=O)NC(C)c1ncco1 (stereo not drawn)", "100 to 1000 nM"],
  ["Cc1oc2ncnc(NC3(C)CC3)c2c1C(=O)N1CCn2c(cnc2C2CC2)C1", "100 to 1000 nM"]
]}

Q: Find the measured IC50 of Cc1oc2ncnc(NC3(C)CC3)c2c1C(=O)NC1CCN(c2cnccn2)CC1 and report it.
Ans: 10 to 100 nM

Q: Find the measured IC50 of Cc1oc2ncnc(NC3(C)CC3)c2c1C(=O)Nc1cnn(Cc2ccccn2)c1 and report it.
Ans: 10 to 100 nM

Q: Find the measured IC50 of Cc1oc2ncnc(NC3(C)CC3)c2c1C(=O)N1CCn2nccc2C1 and report it.
Ans: 10 to 100 nM

Q: Find the measured IC50 of COc1cccc(CN(C)C(=O)c2c(C)oc3ncnc(NC4(C)CC4)c23)c1 and report it.
Ans: 10 to 100 nM
